Target sequence: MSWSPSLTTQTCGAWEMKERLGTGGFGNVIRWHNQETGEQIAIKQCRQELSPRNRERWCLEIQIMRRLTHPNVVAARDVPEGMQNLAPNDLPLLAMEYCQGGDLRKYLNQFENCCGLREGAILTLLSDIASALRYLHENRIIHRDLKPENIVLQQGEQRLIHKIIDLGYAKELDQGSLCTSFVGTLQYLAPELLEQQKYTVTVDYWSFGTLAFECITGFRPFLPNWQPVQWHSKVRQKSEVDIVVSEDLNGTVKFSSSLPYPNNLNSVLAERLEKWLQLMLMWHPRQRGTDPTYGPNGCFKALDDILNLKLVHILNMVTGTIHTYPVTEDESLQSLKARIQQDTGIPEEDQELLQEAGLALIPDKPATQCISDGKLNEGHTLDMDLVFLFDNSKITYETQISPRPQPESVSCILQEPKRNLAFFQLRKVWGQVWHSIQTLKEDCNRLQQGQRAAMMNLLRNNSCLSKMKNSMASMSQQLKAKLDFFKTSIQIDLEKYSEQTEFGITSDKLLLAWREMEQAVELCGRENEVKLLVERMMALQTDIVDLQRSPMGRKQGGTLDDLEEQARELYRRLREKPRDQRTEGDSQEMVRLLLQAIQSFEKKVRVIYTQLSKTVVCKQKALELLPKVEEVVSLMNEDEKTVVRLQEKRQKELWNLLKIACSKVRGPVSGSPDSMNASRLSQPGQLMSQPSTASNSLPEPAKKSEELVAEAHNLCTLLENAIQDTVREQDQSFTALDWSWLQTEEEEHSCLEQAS
pIC50: −log10 of the molar value.
measured parameter: pIC50

Look up pIC50: NC(=O)c1cnc(N)c2c1sc1c(-c3ccccc3)cccc12 ≥ 6.00

Next:
Look up pIC50: CN(C)Cc1ccc(-c2ccc3c(c2)sc2c(C(N)=O)cnc(N)c23)cc1 ≥ 6.30

Look up pIC50: NC(=O)c1cnc(N)c2c1[nH]c1ccc(Br)cc12 ≥ 6.00

Look up pIC50: NC(=O)c1cnc(N)c2c1[nH]c1ccc(F)cc12 ≥ 6.00

Look up pIC50: NC(=O)c1cnc(N)c2c1sc1c(Cl)cccc12 ≥ 6.00
